Each entry below lists one item and its recorded PBM binding z-score value.
- Tested on: PPARg:RXRa 30nM:10nM, anti-RXR (NR concentration 30 nM, RXRa partner concentration 10 nM)
- TEST METHOD NOTES: PBM binding z-score (relative to random genomic background probes); higher = stronger binding; sequences stand for … in GC…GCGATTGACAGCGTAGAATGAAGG
OBSERVED PROPERTY: PBM binding z-score

{"SEQUENCE TEXT": "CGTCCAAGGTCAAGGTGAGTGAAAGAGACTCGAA", "OBSERVED PROPERTY": "PBM binding z-score", "RECORDED MEASUREMENT": 2.05}
{"SEQUENCE TEXT": "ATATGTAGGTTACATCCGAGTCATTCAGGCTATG", "OBSERVED PROPERTY": "PBM binding z-score", "RECORDED MEASUREMENT": 1.78}
{"SEQUENCE TEXT": "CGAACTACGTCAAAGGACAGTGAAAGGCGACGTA", "OBSERVED PROPERTY": "PBM binding z-score", "RECORDED MEASUREMENT": 0.179}
{"SEQUENCE TEXT": "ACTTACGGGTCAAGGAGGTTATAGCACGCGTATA", "OBSERVED PROPERTY": "PBM binding z-score", "RECORDED MEASUREMENT": 2.1}
{"SEQUENCE TEXT": "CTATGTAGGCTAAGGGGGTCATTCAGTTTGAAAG", "OBSERVED PROPERTY": "PBM binding z-score", "RECORDED MEASUREMENT": 3.65}
{"SEQUENCE TEXT": "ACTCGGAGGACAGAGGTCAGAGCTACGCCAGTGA", "OBSERVED PROPERTY": "PBM binding z-score", "RECORDED MEASUREMENT": 2.62}
{"SEQUENCE TEXT": "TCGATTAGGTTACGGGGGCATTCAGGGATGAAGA", "OBSERVED PROPERTY": "PBM binding z-score", "RECORDED MEASUREMENT": 4.89}
{"SEQUENCE TEXT": "CGAACTCGGTCAAAGGACAGTGAAAGGCGACGTA", "OBSERVED PROPERTY": "PBM binding z-score", "RECORDED MEASUREMENT": 3.97}
{"SEQUENCE TEXT": "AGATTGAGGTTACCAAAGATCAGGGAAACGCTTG", "OBSERVED PROPERTY": "PBM binding z-score", "RECORDED MEASUREMENT": 0.623}
{"SEQUENCE TEXT": "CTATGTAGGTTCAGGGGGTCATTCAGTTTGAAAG", "OBSERVED PROPERTY": "PBM binding z-score", "RECORDED MEASUREMENT": 3.18}
{"SEQUENCE TEXT": "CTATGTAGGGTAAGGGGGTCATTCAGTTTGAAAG", "OBSERVED PROPERTY": "PBM binding z-score", "RECORDED MEASUREMENT": 5}
{"SEQUENCE TEXT": "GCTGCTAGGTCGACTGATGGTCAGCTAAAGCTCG", "OBSERVED PROPERTY": "PBM binding z-score", "RECORDED MEASUREMENT": -0.591}

====

- System: THRa:RXRa (NR concentration 90 nM, RXRa partner concentration 90 nM)
- TEST METHOD NOTES: PBM binding z-score (relative to random genomic background probes); higher = stronger binding; sequences stand for … in GC…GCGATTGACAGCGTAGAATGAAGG
We use 4 as the dividing line for PBM binding z-score: on or above the line is yes, below is no.

{"SEQUENCE TEXT": "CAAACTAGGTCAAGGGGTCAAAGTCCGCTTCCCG", "LABEL VALUE": "yes"}
{"SEQUENCE TEXT": "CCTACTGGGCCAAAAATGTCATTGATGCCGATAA", "LABEL VALUE": "no"}
{"SEQUENCE TEXT": "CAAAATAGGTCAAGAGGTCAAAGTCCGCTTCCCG", "LABEL VALUE": "yes"}
{"SEQUENCE TEXT": "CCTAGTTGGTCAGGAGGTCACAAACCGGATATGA", "LABEL VALUE": "no"}
{"SEQUENCE TEXT": "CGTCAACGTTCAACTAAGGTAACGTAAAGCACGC", "LABEL VALUE": "no"}
{"SEQUENCE TEXT": "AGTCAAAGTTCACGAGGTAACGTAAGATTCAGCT", "LABEL VALUE": "no"}
